- assay.explanation: NCI Yeast Anticancer Drug Screen. Data for the rad50 strain (AID 155);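 note: 0% = growth of vehicle-only cultures of the same strain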
- condition.description: S. cerevisiae rad50 strain growth inhibition; at 50.0 µM
Compounds without any hit were thinned out: in the full panel of roughly 79,000, 15% have a hit. Active and inactive are the calls of the source. Cut-off read from the data, not from the text of the source: active = growth inhibition above about 70%; inactive = the rest.
Parameter call: string, one of true (1) for active, false (0) for inactive

Here are 10 compounds together with their reported answers.
{"compound": "CNc1ccccc1C(=O)O", "class.assignment": "false (0)"}
{"compound": "CC(=O)[O-].CC(=O)[O-].[Mn+2].c1ccc(/C(=N\\Nc2ccccn2)c2ccccn2)cc1", "class.assignment": "true (1)"}
{"compound": "O=C(NCC(O)CO)c1c([N+](=O)[O-])ccc(N(CCCl)CCCl)c1[N+](=O)[O-] (configuration not stated)", "class.assignment": "false (0)"}
{"compound": "Oc1cccc(/C=N\\NC(=S)NC2CN3CCC2CC3)c1 (configuration not stated)", "class.assignment": "false (0)"}
{"compound": "Nc1nc(CC(N)C(=O)O)c[se]1 (configuration not stated)", "class.assignment": "false (0)"}
{"compound": "NCCn1ccc2ccccc21", "class.assignment": "false (0)"}
{"compound": "S=P12OCCC(CO1)O2 (configuration not stated)", "class.assignment": "false (0)"}
{"compound": "NC(c1ccccc1)C(O)c1ccc(O)cc1 (configuration not stated)", "class.assignment": "false (0)"}
{"compound": "C=C1[C@@H](C)[C@H]2[C@H](Cc3ccccc3)NC(=O)[C@]23OC(=O)/C=C/[C@H](O)CCC[C@@H](C)C/C=C/[C@H]3[C@@H]1O", "class.assignment": "false (0)"}
{"compound": "[CH3][Sb]1([Br])[CH2]CC[CH2]1", "class.assignment": "false (0)"}

How did this test come out for CCOP(=O)(OCC)Oc1ccncc1 ?
false (0)

Call for entry CCC(=O)N/N=C(\N)N[N+](=O)[O-] :
false (0)

---

- assay.explanation: NCI Yeast Anticancer Drug Screen. Data for the mlh1 rad18 strain (AID 175)
- condition.description: S. cerevisiae mlh1 rad18 strain growth inhibition; at 50.0 µM
This is part of a sample that, as a whole, favours compounds with a hit. Of some 79,000 tested, about 15% had one in any assay. Active and inactive are the calls of the source. Cut-off read from the data, not from the text of the source: active = growth inhibition above about 70%; inactive = the rest.
Bench note: report the call from 1 = active, -1 = inactive

See these solved cases before continuing.
{"molecule": "CC1(C)N=C(N)N=C(N)N1c1ccc(CCCCCCc2ccc(S(=O)(=O)F)cc2)cc1", "class.assignment": 1}
{"molecule": "O=S1(F)=NP(N2CC2)(N2CC2)=NP(N2CC2)(N2CC2)=N1 (configuration not stated)", "class.assignment": -1}
{"molecule": "CCCCOCCOC(=O)CCl", "class.assignment": -1}

Lab log entry: O=CC1(c2ccccc2)CCNCC1 — outcome as called in the assay?
-1

Look up the recorded call for C=C1CC2C3CC=C4CC(OC(C)=O)CCC4(C)C3CCC2(C)C1=O (configuration not stated) in this test.
-1

Write down the call the test reported for this molecule. Item: O=C(CC(=O)c1ccccc1)c1ccccc1.[Tl]
1

Kindly provide the recorded test outcome for the following molecule: O=C(/C=C/c1ccccc1)CCC1C(=O)NC(=S)NC1=O
-1

Can you look up the reported call for CC(C)=CCC12Cc3ccc(O)cc3C(C(C)CN1)C2C (configuration not stated) for me?
-1

---

- assay.explanation: NCI Yeast Anticancer Drug Screen. Data for the rad50 strain (AID 155);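 note: 0% = growth of vehicle-only cultures of the same strain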
- condition.description: S. cerevisiae rad50 strain growth inhibition; at 50.0 µM; hits give high values
About 79,000 compounds went through this panel and 15% of them were active in at least one assay; those are over-represented in the sample as a whole.
Kindly supply the reported growth inhibition values for the records listed here.
Numbers only, in %.

Record growth inhibition per entry; entries follow.
1. Nn1cnnc1
2. O=C1NC2(CCCC2)C(=O)N1CCCN(CCCl)CCCl
3. CC(C)OP(=O)(OC(C)C)/C(C#N)=C/c1ccco1
4. O=C(CC(=O)C(F)(F)F)c1cccs1
5. CCCN(C)C(C)(C)C(=O)c1ccccc1
6. [NH-]C(CCC(N)=O)C(=O)O.[NH-]C(CCC(N)=O)C(=O)O.[Pd+2] (stereo not drawn)
7. Cc1cccnc1NN=O

1. -12.9
2. 2.75
3. -23.9
4. -6.15
5. 8.8
6. -14.6
7. -8.25

Please supply growth inhibition for each of the following items, keeping them in order.
1. CC1CN1C1=C(Br)C(=O)C(N2CC2C)=C(Br)C1=O (stereo not drawn)
2. Nc1noc(N)n1
3. CCOS(=O)(=O)c1ccc(C)cc1
4. COc1ccc(CC(N)c2ccc(OC)cc2)cc1 (stereo not drawn)
5. NC1=Nc2ccccc2Sc2ccccc21

73.7
-43
13.8
-50
-19.2

Item C[C@]12CC[C@@H](O)C[C@H]1[C@@H](O)C[C@@H]1[C@@H]2CC[C@]2(C)C(=O)CC[C@@H]12 has what recorded growth inhibition?
-17.4

---

- assay.explanation: NCI Yeast Anticancer Drug Screen. Data for the mlh1 rad18 strain (AID 175)
- condition.description: S. cerevisiae mlh1 rad18 strain growth inhibition; at 50.0 µM
The panel holds about 79,000 compounds, 15% with a hit somewhere; the sample as a whole holds those more often. The source made the active and inactive calls. Cut-off read from the data, not from the text of the source: active = growth inhibition above about 70%; inactive = the rest.
Your reply should match one of these outcome classes. true for active, false for inactive

{"compound": "CN1[C@@H](CC(=O)c2ccccc2)CCC[C@H]1CC(=O)c1ccccc1", "class.assignment": "false"}
{"compound": "CN(C)C1OCC(C)(C)CO1", "class.assignment": "false"}
{"compound": "Nc1cccc2ccccc12", "class.assignment": "false"}
{"compound": "S=C(Nc1ccccc1)N1CC1", "class.assignment": "false"}
{"compound": "CC(=O)c1ccc(Br)cc1", "class.assignment": "false"}

Field: outcome | Entry: CCC1(O)N=C(c2ccccc2)c2ccccc2-n2cccc21 (stereo not given)
false

How was C=C1C(=O)OC2CCN3CC=C(COC(=O)C(C)(O)C4(CO4)C1C)C23 (stereo not given) classified in this test?
false

Give the logged outcome of this assay for the following compound: CC(C(=O)c1ccccc1)N(C)Cc1ccccc1 (stereo not given)
false

Please let me know the test result on file for O=C=Nc1ccc(Br)cc1 .
false

Please indicate how the test categorized O=C1CCCN1CC#CCN1C[C@@H]2C3CCC(C3)[C@@H]2C1 .
false

Called result for CCC(CC)CNC(=O)C(Cl)Cl
false

---

Exercise: state measured growth inhibition for each of the compounds provided.
- assay.explanation: NCI Yeast Anticancer Drug Screen. Data for the mlh1 rad18 strain (AID 175)
- condition.description: S. cerevisiae mlh1 rad18 strain growth inhibition; at 50.0 µM; hits give high values
About 79,000 compounds went through this panel and 15% of them were active in at least one assay; those are over-represented in the sample as a whole.
Numbers only, in %.

Please give growth inhibition, item by item, for the list that follows.
1. CC(Br)C(N)=O (stereo not drawn)
2. NC(Cc1ccccc1)c1nn[nH]n1 (stereo not drawn)
3. CC(=O)Nc1ccc([N+](=O)[O-])c(C(F)(F)F)c1
4. c1ccc2c3c(ccc2c1)NC1CCCN1C3 (stereo not drawn)
5. CC(C)CN(CC(C)C)[N+](=O)[O-]
6. CC1(C)C(=O)N(O)C(C)(C)N1N=O
7. CCCCC(CC)COP(=S)(S)OCC(CC)CCCC.[Sn] (stereo not drawn)

[-13.8, -19.3, 6.05, 12.2, -12.7, 19.6, -7.7]

Please give growth inhibition for each item listed below.
1. O=C1NN2CCCN=C2c2cnccc21
2. C[N+]1([O-])C2CCC1CC(OC(=O)C(O)c1ccccc1)C2 (stereo not drawn)
3. O=C(O)C(Cl)Cl
4. CCCCC(=O)[O-].N.N.N.N.N.[Co+3].[O-][Cl+3]([O-])([O-])[O-]
5. NC(Cc1ccccc1)c1cccc2c1CCCC2 (stereo not drawn)
6. O=C1NCN(c2ccccc2)C12CCN(Cc1ccccc1)CC2

-7.4
3.4
9.45
-16
40.5
5.5

---

- assay.explanation: NCI Yeast Anticancer Drug Screen. Data for the mec2-1 strain (AID 157)
- condition.description: S. cerevisiae mec2-1 strain, at 50.0 µM, hits give high values
Compounds without any hit were thinned out: in the full panel of roughly 79,000, 15% have a hit.
Task for the reader: assign each of the following compounds its reported growth inhibition.
Give bare numbers, in %.

Consider the following illustrative entries.
{"compound": "COc1cc(/C=C2\\C(O)C3CCN2CC3)cc(OC)c1OC (centres undefined)", "recorded.metric": "growth inhibition", "observed.result": -2.15}
{"compound": "Clc1cccc(Cl)c1C(Cl)Cl", "recorded.metric": "growth inhibition", "observed.result": -17.2}
{"compound": "Cc1ccc(NC(=O)CCc2ccc(N3C(N)=NC(N)=NC3(C)C)cc2Cl)cc1S(=O)(=O)F", "recorded.metric": "growth inhibition", "observed.result": 72.3}
{"compound": "CNCC(C)c1ccccc1OC (centres undefined)", "recorded.metric": "growth inhibition", "observed.result": -6.7}
{"compound": "[C-]#[O+].[C-]#[O+].[C-]#[O+].[C-]#[O+].[C-]#[O+].[C-]#[O+].[C-]#[O+].[C-]#[O+].[C-]#[O+].[CH2-]C.[Co].[Co].[Co]", "recorded.metric": "growth inhibition", "observed.result": 9.9}
{"compound": "Nc1nc(=S)nc(N)[nH]1", "recorded.metric": "growth inhibition", "observed.result": 11.2}
{"compound": "CCC[P+](CCC)(CCC)CCCCCCCCCC[P+](CCC)(CCC)CCC", "recorded.metric": "growth inhibition", "observed.result": -13}
{"compound": "COCC(=O)CP(=O)(OC)OC", "recorded.metric": "growth inhibition", "observed.result": -19.6}
{"compound": "CC(=O)NC(CS)C(=O)[O-].CC(=O)NC(CS)C(=O)[O-].N.N.[Pt+4] (centres undefined)", "recorded.metric": "growth inhibition", "observed.result": -9.85}
{"compound": "CC(C)/C=C/C1(C(C)C)C(=O)NC(=O)NC1=O", "recorded.metric": "growth inhibition", "observed.result": 9.5}

Can you give me growth inhibition for all of these, one by one?
1. CCOP(=O)(O)SP(=O)(O)OCC.[Zn+2]
2. CC(=O)OCC1OC(n2ncc3c(N4CC4)ncnc32)C(OC(C)=O)C1OC(C)=O (centres undefined)
3. SCCS
4. O=S(=O)(c1ccccc1)N1CC1CI (centres undefined)
5. CC(Br)CN(CC(C)Br)c1ccc(-c2ccccc2)cc1 (centres undefined)
6. C=C(C)[C@]12CC(C)C34OC(/C=C\C=C\CCCCCCCCC)(O[C@@H]1[C@@H]3[C@@H]1O[C@]1(CO)[C@@H](O)[C@]1(O)C(=O)C(C)=C[C@@H]41)O2 (some centres undefined)
7. COC(=O)C(O)(c1ccccc1)C1CCCC1 (centres undefined)

1. -11.8
2. -12.6
3. -5.2
4. 2.7
5. 30
6. 70
7. -10.1
